All values here come from patent US20220242846A1.

molecular target: GSPT1 (Homo sapiens, UniProt P15170+Q96SW2); assay: Immunofluorescence assay for GSPT1 degradation in CAL-51 cells; type: cell-based; design: CAL-51 cells were purchased from DSMZ (cat. Number ACC302); endogenous in cells; host or cells: CAL-51 (DSMZ ACC302); conditions: GSPT1 degradation, compound treatment 6 hours, read-out: DC50
Sequence (P15170 whole entry): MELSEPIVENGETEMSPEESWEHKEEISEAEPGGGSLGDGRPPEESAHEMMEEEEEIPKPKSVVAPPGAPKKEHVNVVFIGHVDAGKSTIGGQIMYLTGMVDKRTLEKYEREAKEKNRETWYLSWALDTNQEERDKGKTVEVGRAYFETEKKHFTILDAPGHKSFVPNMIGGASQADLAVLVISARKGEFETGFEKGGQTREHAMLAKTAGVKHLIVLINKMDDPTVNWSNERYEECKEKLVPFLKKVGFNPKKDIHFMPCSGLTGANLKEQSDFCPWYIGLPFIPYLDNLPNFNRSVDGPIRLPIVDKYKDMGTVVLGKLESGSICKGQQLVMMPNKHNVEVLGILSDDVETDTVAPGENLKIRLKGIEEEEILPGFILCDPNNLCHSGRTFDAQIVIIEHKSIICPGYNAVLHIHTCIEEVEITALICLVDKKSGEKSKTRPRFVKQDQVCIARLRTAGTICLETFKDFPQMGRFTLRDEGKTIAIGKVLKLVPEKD
Sequence (Q96SW2 whole entry): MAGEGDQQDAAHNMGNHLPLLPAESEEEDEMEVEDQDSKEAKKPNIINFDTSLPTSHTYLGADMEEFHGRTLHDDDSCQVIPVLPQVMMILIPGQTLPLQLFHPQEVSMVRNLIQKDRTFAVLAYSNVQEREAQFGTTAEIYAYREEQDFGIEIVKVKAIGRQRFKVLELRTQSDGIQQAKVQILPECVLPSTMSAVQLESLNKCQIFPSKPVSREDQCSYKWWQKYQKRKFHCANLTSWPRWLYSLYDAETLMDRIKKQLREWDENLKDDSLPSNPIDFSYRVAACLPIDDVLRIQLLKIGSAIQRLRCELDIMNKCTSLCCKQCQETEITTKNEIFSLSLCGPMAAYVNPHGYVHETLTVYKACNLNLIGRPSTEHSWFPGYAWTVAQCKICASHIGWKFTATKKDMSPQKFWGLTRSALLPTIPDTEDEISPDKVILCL
Sequence (Q16531 2-1140 partner limits assumed): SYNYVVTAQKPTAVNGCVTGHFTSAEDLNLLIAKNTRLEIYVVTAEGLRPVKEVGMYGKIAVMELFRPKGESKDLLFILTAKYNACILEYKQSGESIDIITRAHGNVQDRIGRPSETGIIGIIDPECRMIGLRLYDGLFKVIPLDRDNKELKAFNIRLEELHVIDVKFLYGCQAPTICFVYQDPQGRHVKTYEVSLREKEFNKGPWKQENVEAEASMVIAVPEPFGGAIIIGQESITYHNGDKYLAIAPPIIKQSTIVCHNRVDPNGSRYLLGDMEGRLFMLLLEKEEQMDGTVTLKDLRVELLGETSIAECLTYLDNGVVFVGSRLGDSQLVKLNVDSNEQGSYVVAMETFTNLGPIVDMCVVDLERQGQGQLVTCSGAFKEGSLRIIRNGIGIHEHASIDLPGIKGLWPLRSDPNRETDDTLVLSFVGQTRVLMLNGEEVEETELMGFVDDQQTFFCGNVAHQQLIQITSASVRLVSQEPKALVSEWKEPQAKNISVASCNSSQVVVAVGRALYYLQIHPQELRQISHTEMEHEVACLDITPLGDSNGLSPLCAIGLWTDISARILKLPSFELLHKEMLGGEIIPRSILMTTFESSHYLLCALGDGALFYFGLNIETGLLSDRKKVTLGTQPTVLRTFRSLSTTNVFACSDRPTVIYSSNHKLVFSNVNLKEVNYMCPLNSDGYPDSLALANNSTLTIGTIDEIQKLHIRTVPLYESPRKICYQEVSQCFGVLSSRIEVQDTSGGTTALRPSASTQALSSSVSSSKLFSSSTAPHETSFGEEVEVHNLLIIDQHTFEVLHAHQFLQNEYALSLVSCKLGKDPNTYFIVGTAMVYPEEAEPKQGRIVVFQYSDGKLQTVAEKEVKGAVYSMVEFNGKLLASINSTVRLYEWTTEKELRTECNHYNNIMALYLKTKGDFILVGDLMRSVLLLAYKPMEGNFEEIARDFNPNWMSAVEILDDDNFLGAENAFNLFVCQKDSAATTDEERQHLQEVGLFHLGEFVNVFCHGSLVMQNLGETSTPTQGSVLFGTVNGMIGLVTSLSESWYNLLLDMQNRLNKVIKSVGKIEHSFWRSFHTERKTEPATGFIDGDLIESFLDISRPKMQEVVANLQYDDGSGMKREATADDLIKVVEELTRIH
property: DC50
Express your answer as a number followed by its unit.

# count of solved cases: 3
INSERT INTO results (compound, reported) VALUES
  ('Cn1nccc1-c1cccc(NC(=O)NCc2ccc3c(c2)C(=O)N(C2CCC(=O)NC2=O)C3)c1 (stereo not shown) [Compound 115]', '299 nM'),
  ('O=C1CCC(N2Cc3ccc(CNC(=O)Nc4cccc(C(F)F)c4)cc3C2=O)C(=O)N1 (stereo not shown) [Compound 106]', '188 nM'),
  ('Cc1c(Cl)cc(NC(=O)NCc2ccc3c(c2)C(=O)N(C2CCC(=O)NC2=O)C3)cc1C12CC1CN(C)C2 (stereo not shown) [Compound 155]', '176 nM');

With those in mind, consider the next compound.
Kindly note the recorded DC50 for CN(C)c1cccc(NC(=O)NCc2ccc3c(c2)C(=O)N(C2CCC(=O)NC2=O)C3)c1 (stereo not shown) [Compound 89] , which is 198 nM

###

target: GSPT1 (Homo sapiens, UniProt P15170+Q96SW2); experiment: Immunofluorescence assay for GSPT1 degradation in CAL-51 cells; format: cell-based; parameters: CAL-51 cells were purchased from DSMZ (cat. Number ACC302); endogenous in cells; host or cells: CAL-51 (DSMZ ACC302); settings: compound treatment 6 hours, read-out: Code: activity for GSPT1 degradation (DC50)
Documented DC50 across a set of compounds

Kindly note the recorded DC50 for O=C1CCC(N2Cc3ccc(CNC(=O)Nc4nccs4)cc3C2=O)C(=O)N1 (centres unmarked) [Compound 92] , which is > 300 nM

Kindly note the recorded DC50 for CCc1cnc(NC(=O)NCc2ccc3c(c2)C(=O)N(C2CCC(=O)NC2=O)C3)s1 (centres unmarked) [Compound 148] , which is > 300 nM

Kindly note the recorded DC50 for CN(C)c1cccc(NC(=O)NCc2ccc3c(c2)C(=O)N(C2CCC(=O)NC2=O)C3)c1 (centres unmarked) [Compound 89] , which is 100 to 300 nM

Kindly note the recorded DC50 for O=C1CCC(N2Cc3ccc(CNC(=O)Nc4cccc(Oc5ccccn5)c4)cc3C2=O)C(=O)N1 (centres unmarked) [Compound 121] , which is 100 to 300 nM

Kindly note the recorded DC50 for CN(C)c1ccc(NC(=O)NCc2ccc3c(c2)C(=O)N(C2CCC(=O)NC2=O)C3)cc1 (centres unmarked) [Compound 79] , which is > 300 nM

Kindly note the recorded DC50 for Cc1cc(Cl)c(NC(=O)NCc2ccc3c(c2)C(=O)N(C2CCC(=O)NC2=O)C3)c(C)c1Cl (centres unmarked) [Compound 96] , which is > 300 nM

Kindly note the recorded DC50 for Cc1ccc(NC(=O)NCc2ccc3c(c2)C(=O)N(C2CCC(=O)NC2=O)C3)c(C)c1Cl (centres unmarked) [Compound 93] , which is > 300 nM

Kindly note the recorded DC50 for Cc1c(Cl)cc(NC(=O)NCc2ccc3c(c2)C(=O)N(C2CCC(=O)NC2=O)C3)cc1CN1CCC(N2CCOCC2)CC1 (centres unmarked) [Compound 126] , which is > 300 nM
